# credit: PubChem BioAssay (NCI)

Each entry below carries its reported growth.
# Test system: ACHN renal
# assay.info: NCI-60 one-dose screen, 48 h (100 = growth as untreated, 0 = no growth, -100 = all killed)
# run.parameters: 10 µM unless noted
The panel holds about 83,000 compounds, 20% with a hit somewhere; the sample as a whole holds those more often.
Write the answer as a number in %, unit excluded.

Solved entries (count: 3):
> print(dat)
                                   compound  value
1  CC1(C)NCCC[C@]2(C)[C@H]3C/C(=N\O)C4[C@@H]5C[C@@](C)(CO)CC[C@]5(C)CC[C@@]4(C)[C@]3(C)CC[C@@H]12 (some centres undefined)    101
2        CCCCNNC(=O)c1ccc(-c2cccc(F)c2F)cc1   22.4
3  N#Cc1cccc(CN2CCc3ncn(Cc4ccc(Cl)cc4)c(=O)c3C2)c1   29.8

Find growth (ACHN renal) for the entry "COc1cc(OC)cc(C(=O)Nc2cccc(C#Cc3cccc4[nH]nc(N)c34)c2)c1"
35.4

Which measured growth belongs to COc1cc2nc(Cl)nc(Nc3cccc(C4=Nc5c(N)nc(N)nc5NC(c5ccccc5)C4)c3)c2cc1OC (centres undefined) , tested on ACHN renal?
91.8

Short answer please: growth, ACHN renal, entry COc1ccc(C2CC(c3ccc(Nc4nc(NCCO)nc(N5CCOCC5)n4)cc3)=Nc3c(N)nc(N)nc3N2)cc1 (centres undefined)
102

Short answer please: growth, ACHN renal, entry CCNC(=O)N1CCc2cc(OC)c(OCCc3ccc(OC)nc3)cc2C1c1ccc(C)cc1C (centres undefined)
25

Give growth (ACHN renal) of the following compound: "O=C1CCCc2nc(Nc3ccc(S(=O)(=O)Nc4ccc([N+](=O)[O-])cc4)cc3)ncc21"
104

Reported growth for ACHN renal, given "NC(N)=Nc1ccc(Nc2cccc(Nc3ccc(Cl)c(C(F)(F)F)c3)c2)cn1" ?
78.1

Under ACHN renal: growth value of "COc1ccc(OC)c(-c2nc(SCC(=O)c3ccc(Br)cc3)nc(Nc3ccc(S(N)(=O)=O)cc3)c2C#N)c1" ?
55.9

Lab request: please report growth under test system ACHN renal for "Cc1cc(C)n(C(=O)c2sc(=S)n(-c3ccccc3)c2N=Nc2c(N)n[nH]c2N)n1"
102

Recall the recorded growth for "CCOC(=O)c1c(Nc2ccccc2)nn2c(-c3ccccc3)ccnc12" with ACHN renal and state it.
90.7

---

Below is a list of entries, each paired with its recorded growth value.
# System: HS 578T breast
# assay.info: NCI-60 one-dose screen, 48 h (100 = growth as untreated, 0 = no growth, -100 = all killed)
# run.parameters: 10 µM unless noted
The panel holds about 83,000 compounds, 20% with a hit somewhere; the sample as a whole holds those more often.
Report the value in % with no unit label.

> print(dat)
                                   molecule     target.desc  result.units  value
1   CCCCCCCn1cc2c(N[C@H](C)c3ccccc3)ncnc2n1  HS 578T breast             %   91.2
2  O=C(Nc1ccc(N=Cc2c(O)[nH]c3ccccc23)cc1)Nc1nccs1  HS 578T breast             %   31.5
3  O=C(CCn1c[n+](CC(=O)c2ccc(F)cc2)c2ccccc21)Nc1cccc2cccnc12  HS 578T breast             %   84.5
4  COc1ccc(-c2nc3cc(Cl)c(Cl)cc3n2CC(=O)N=Nc2c(O)[nH]c3ccc(OC)cc23)cc1  HS 578T breast             %   47.7
5  CCc1cccc2c3c(sc12)C(c1ccc(OC)cc1)C(C#N)=C(/N=C/c1ccc(Cl)cc1)O3 (stereo not given)  HS 578T breast             %  -7.21

Report growth for c1ccc(C(c2nc3ncncc3[nH]2)N2CSc3nc4ncncc4n3C2)cc1 (stereo not given) please.
77.2

Fill blank: measured growth of the molecule "C#Cc1nc(/C=C/C(=O)c2nccn2C)cs1" is ____.
-6.46

Reported growth, molecule "NC(N)=Nc1ccc(Oc2cccc(Nc3ccc(Cl)cc3)c2)cn1" : ____
34.1

Would you kindly share the measured growth for "CNC(=O)c1c(NC(=O)c2cccc(C(F)(F)F)c2F)sc2c1CCC(=O)C2" ?
8.98

// returns reported growth for input "C=CCn1c(SCC(=O)Nc2ccc(C(=O)/C=C/c3cccc([N+](=O)[O-])c3)cc2)nnc1-c1c[nH]c2ccccc12"
102
